Source listed as the supplement of paper PMC11061612.

# reported combination Emax; entries follow
test system: MS751 (Cervical Carcinoma); test: combination Emax (second highest fraction inhibited in the dose matrix, 72 h); higher = more inhibition; extreme values may be limits of the assay
Please give only the number in your answer, with no unit.

Task: For MS751 (Cervical Carcinoma), provide combination Emax of C=CCn1c(=O)c2cnc(Nc3ccc(N4CCN(C)CC4)cc3)nc2n1-c1cccc(C(C)(C)O)n1 [AZD1775] + C[C@@H]1COCCN1C2=NC(=NC(=C2)C3(CC3)[S@](=N)(=O)C)C4=C5C=CNC5=NC=C4 [AZD6738] (first compound max 1 µM, partner max 10 µM) please.
Result: 0.428

Task: For MS751 (Cervical Carcinoma), provide combination Emax of CC1(C)CCC(CN2CCN(c3ccc(C(=O)NS(=O)(=O)c4ccc(NCC5CCOCC5)c([N+](=O)[O-])c4)c(Oc4cnc5[nH]ccc5c4)c3)CC2)=C(c2ccc(Cl)cc2)C1 [Venetoclax] + COc1cc(Nc2ncc3c(n2)-c2ccc(Cl)cc2C(c2c(F)cccc2OC)=NC3)ccc1C(=O)O [Alisertib] (first compound max 1 µM, 7x7, partner max 10 µM) please.
Result: 0.724

Task: For MS751 (Cervical Carcinoma), provide combination Emax of NC1(C(=O)N[C@@H](CCO)c2ccc(Cl)cc2)CCN(c2ncnc3[nH]ccc23)CC1 [Capivasertib] + Cn1cnc2c(F)c(Nc3ccc(Br)cc3Cl)c(C(=O)NOCCO)cc21 [Selumetinib] (first compound max 10 µM, 7x7, partner max 10 µM) please.
Result: 0.263

Task: For MS751 (Cervical Carcinoma), provide combination Emax of CN(C)CCCOc1ccc(-c2ccc3ncc4c(c3c2)n(C2CCOCC2)c(=O)n4C)cn1 [AZD0156] + C[C@@H]1COCCN1C2=NC(=NC(=C2)C3(CC3)[S@](=N)(=O)C)C4=C5C=CNC5=NC=C4 [AZD6738] (first compound max 1 µM, 7x7, partner max 10 µM) please.
Result: 0.271

----------
tested on: MEL-JUSO (Melanoma); test: Bliss excess, mean over the matrix (fraction); higher = more synergy
measurement_label: Bliss excess
Please give only the number in your answer, with no unit.

Past entries and their recorded results:
COc1nnc2ccc(N3CCC(c4ccc(OCCN5CCN(C)C(=O)[C@H]5C)cc4)CC3)nn12 [AZD5153] + CN(CC[C@H](CSC1=CC=CC=C1)NC2=C(C=C(C=C2)S(=O)(=O)NC(=O)C3=CC=C(C=C3)N4CCC(CC4)[C@H](C5=CC=CC=C5C6=CC=C(C=C6)Cl)O)S(=O)(=O)C(F)(F)F)CCO [AZD4320] (first compound max 1 µM, 7x7, partner max 1 µM)	0.0122
COc1nnc2ccc(N3CCC(c4ccc(OCCN5CCN(C)C(=O)[C@H]5C)cc4)CC3)nn12 [AZD5153] + Cc1c2c(nn1C)CSCc1cc(n(C)n1)CSc1cc(c3ccccc3c1)OCCCc1c(C(=O)O)n(C)c3c-2c(Cl)ccc13 [AZD5991] (first compound max 1 µM, 7x7, partner max 1 µM)	-0.0507
Cn1cnc2c(F)c(Nc3ccc(Br)cc3Cl)c(C(=O)NOCCO)cc21 [Selumetinib] + C=CCn1c(=O)c2cnc(Nc3ccc(N4CCN(C)CC4)cc3)nc2n1-c1cccc(C(C)(C)O)n1 [AZD1775] (first compound max 10 µM, partner max 1 µM)	-0.0388
NC1(C(=O)N[C@@H](CCO)c2ccc(Cl)cc2)CCN(c2ncnc3[nH]ccc23)CC1 [Capivasertib] + CCN(CCO)CCCOc1ccc2c(Nc3cc(CC(=O)Nc4cccc(F)c4)[nH]n3)ncnc2c1 [AZD2811] (first compound max 10 µM, 7x7, partner max 1 µM)	-0.0083
NC1(C(=O)N[C@@H](CCO)c2ccc(Cl)cc2)CCN(c2ncnc3[nH]ccc23)CC1 [Capivasertib] + CC(C)n1c(=O)n(C)c2cnc3cc(F)c(-c4ccc(OCCCN5CCCCC5)nc4)cc3c21 [AZD1390] (first compound max 10 µM, 7x7, partner max 0.3 µM)	-0.0784

Task: Bliss excess lookup needed for Cc1cc2ncnn2cc1Nc1ncc2c(n1)n(C1CCOCC1)c(=O)n2C [AZD7648] + C=CCn1c(=O)c2cnc(Nc3ccc(N4CCN(C)CC4)cc3)nc2n1-c1cccc(C(C)(C)O)n1 [AZD1775] (first compound max 10 µM, partner max 1 µM) , thanks.
Result: 0.0263

Task: Bliss excess lookup needed for COc1cc2ncnc(Nc3ccc(F)c(Cl)c3)c2cc1OCCCN1CCOCC1 [Gefitinib] + CC(C)n1c(=O)n(C)c2cnc3cc(F)c(-c4ccc(OCCCN5CCCCC5)nc4)cc3c21 [AZD1390] (first compound max 10 µM, 7x7, partner max 0.3 µM) , thanks.
Result: -0.0857

----------
# reported Bliss excess; entries follow
system: PANC-08-13 (Pancreatic Carcinoma); test: Bliss excess, mean over the matrix (fraction); higher = more synergy
Please give only the number in your answer, with no unit.

Task: Bliss excess lookup needed for Cc1c2c(nn1C)CSCc1cc(n(C)n1)CSc1cc(c3ccccc3c1)OCCCc1c(C(=O)O)n(C)c3c-2c(Cl)ccc13 [AZD5991] + CC1(C)CCC(CN2CCN(c3ccc(C(=O)NS(=O)(=O)c4ccc(NCC5CCOCC5)c([N+](=O)[O-])c4)c(Oc4cnc5[nH]ccc5c4)c3)CC2)=C(c2ccc(Cl)cc2)C1 [Venetoclax] (first compound max 1 µM, 7x7, partner max 1 µM) , thanks.
Result: -0.0411

Task: Bliss excess lookup needed for CC1(C)CCC(CN2CCN(c3ccc(C(=O)NS(=O)(=O)c4ccc(NCC5CCOCC5)c([N+](=O)[O-])c4)c(Oc4cnc5[nH]ccc5c4)c3)CC2)=C(c2ccc(Cl)cc2)C1 [Venetoclax] + CN(C)CCCOc1ccc(-c2ccc3ncc4c(c3c2)n(C2CCOCC2)c(=O)n4C)cn1 [AZD0156] (first compound max 1 µM, 7x7, partner max 1 µM) , thanks.
Result: 0.0037

Task: Bliss excess lookup needed for Cn1cnc2c(F)c(Nc3ccc(Br)cc3Cl)c(C(=O)NOCCO)cc21 [Selumetinib] + CCN(CCO)CCCOc1ccc2c(Nc3cc(CC(=O)Nc4cccc(F)c4)[nH]n3)ncnc2c1 [AZD2811] (first compound max 10 µM, 7x7, partner max 1 µM) , thanks.
Result: -0.0278

Task: Bliss excess lookup needed for NC1(C(=O)N[C@@H](CCO)c2ccc(Cl)cc2)CCN(c2ncnc3[nH]ccc23)CC1 [Capivasertib] + CC(C)n1c(=O)n(C)c2cnc3cc(F)c(-c4ccc(OCCCN5CCCCC5)nc4)cc3c21 [AZD1390] (first compound max 10 µM, 7x7, partner max 0.3 µM) , thanks.
Result: -0.0908

Task: Bliss excess lookup needed for CCN(CCO)CCCOc1ccc2c(Nc3cc(CC(=O)Nc4cccc(F)c4)[nH]n3)ncnc2c1 [AZD2811] + C=CCn1c(=O)c2cnc(Nc3ccc(N4CCN(C)CC4)cc3)nc2n1-c1cccc(C(C)(C)O)n1 [AZD1775] (first compound max 1 µM, partner max 1 µM) , thanks.
Result: -0.0319

----------
test system: SU-DHL-8 (B-Cell Non-Hodgkin's Lymphoma); experiment: combination Emax (second highest fraction inhibited in the dose matrix, 72 h); higher = more inhibition; extreme values may be limits of the assay
measurement_label: combination Emax
Please give only the number in your answer, with no unit.

Past entries and their recorded results:
CN(C)CCCOc1ccc(-c2ccc3ncc4c(c3c2)n(C2CCOCC2)c(=O)n4C)cn1 [AZD0156] + O=C(c1cc(Cc2n[nH]c(=O)c3ccccc23)ccc1F)N1CCN(C(=O)C2CC2)CC1 [Olaparib] (first compound max 3 µM, partner max 3 µM)	0.266
COc1nnc2ccc(N3CCC(c4ccc(OCCN5CCN(C)C(=O)[C@H]5C)cc4)CC3)nn12 [AZD5153] + C=CCn1c(=O)c2cnc(Nc3ccc(N4CCN(C)CC4)cc3)nc2n1-c1cccc(C(C)(C)O)n1 [AZD1775] (first compound max 1 µM, partner max 1 µM)	0.994
CC(=O)c1c(C)c2cnc(Nc3ccc(N4CCNCC4)cn3)nc2n(C2CCCC2)c1=O [Palbociclib] + Cn1cnc2c(F)c(Nc3ccc(Br)cc3Cl)c(C(=O)NOCCO)cc21 [Selumetinib] (first compound max 10 µM, 7x7, partner max 10 µM)	0.32
COc1nnc2ccc(N3CCC(c4ccc(OCCN5CCN(C)C(=O)[C@H]5C)cc4)CC3)nn12 [AZD5153] + CCN(CCO)CCCOc1ccc2c(Nc3cc(CC(=O)Nc4cccc(F)c4)[nH]n3)ncnc2c1 [AZD2811] (first compound max 1 µM, 7x7, partner max 1 µM)	0.982
Cc1cc2ncnn2cc1Nc1ncc2c(n1)n(C1CCOCC1)c(=O)n2C [AZD7648] + CCN(CCO)CCCOc1ccc2c(Nc3cc(CC(=O)Nc4cccc(F)c4)[nH]n3)ncnc2c1 [AZD2811] (first compound max 10 µM, 7x7, partner max 1 µM)	0.245

Task: combination Emax lookup needed for NC1(C(=O)N[C@@H](CCO)c2ccc(Cl)cc2)CCN(c2ncnc3[nH]ccc23)CC1 [Capivasertib] + CC(=O)c1c(C)c2cnc(Nc3ccc(N4CCNCC4)cn3)nc2n(C2CCCC2)c1=O [Palbociclib] (first compound max 10 µM, 7x7, partner max 10 µM) , thanks.
Result: 0.571

Task: combination Emax lookup needed for CS(=O)(=O)CCNCc1ccc(-c2ccc3ncnc(Nc4ccc(OCc5cccc(F)c5)c(Cl)c4)c3c2)o1 [Lapatinib] + C[C@@H](Oc1cc(-c2cnn(C3CCNCC3)c2)cnc1N)c1c(Cl)ccc(F)c1Cl [Crizotinib] (first compound max 10 µM, 7x7, partner max 10 µM) , thanks.
Result: 0.694

Task: combination Emax lookup needed for CN(C)CCCOc1ccc(-c2ccc3ncc4c(c3c2)n(C2CCOCC2)c(=O)n4C)cn1 [AZD0156] + CCN(CCO)CCCOc1ccc2c(Nc3cc(CC(=O)Nc4cccc(F)c4)[nH]n3)ncnc2c1 [AZD2811] (first compound max 1 µM, 7x7, partner max 1 µM) , thanks.
Result: 0.253

Task: combination Emax lookup needed for Cc1c2c(nn1C)CSCc1cc(n(C)n1)CSc1cc(c3ccccc3c1)OCCCc1c(C(=O)O)n(C)c3c-2c(Cl)ccc13 [AZD5991] + C[C@@H](Nc1cc(F)cc(F)c1)c1cc(C(=O)N(C)C)cc2c(=O)cc(N3CCOCC3)oc12 [AZD8186] (first compound max 1 µM, 7x7, partner max 3 µM) , thanks.
Result: 0.688
